System: production of prostaglandin E2 by human fibroblasts
Experiment: Inhibition of Production of Prostaglandin E2 in Human Fibroblasts (IL-1 stimulation)
Assay type: cell-based
Conditions: Fibroblast; human fibroblasts under stimulation with IL-1
Readout Type: IC50
A bare number is not enough; add the unit after it.

GET IC50 where system = production of prostaglandin E2 by human fibroblasts and item = O=C1NC(=O)/C(=C/c2ccc(C(=O)NC[C@@H]3C[C@@H](Oc4ccccc4Cc4ccccc4)CN3C(=O)c3ccccc3C(=O)c3ccc(F)cc3)cc2)S1 [Compound A-83] 230 nM

GET IC50 where system = production of prostaglandin E2 by human fibroblasts and item = O=C1NC(=S)S/C1=C\c1ccc(C(=O)NC[C@@H]2C[C@@H](SCc3ccccc3-c3ccccc3)CN2C(=O)c2ccccc2C(=O)c2ccc(F)cc2)cc1 [Compound I-6] 260 nM

More entries:
GET IC50 where system = production of prostaglandin E2 by human fibroblasts and item = CC(C)CCN(Cc1ccccc1-c1ccccc1)[C@@H]1C[C@@H](CNC(=O)c2ccc(/C=C3\SC(=O)NC3=O)cc2)N(C(=O)c2ccccc2C(=O)c2ccc(F)cc2)C1 [Compound M-11] 970 nM

---

I'd appreciate it if you could supply IC50 values for the items below.
System: production of prostaglandin E2 by human fibroblasts
Test: Inhibition of Production of Prostaglandin E2 in Human Fibroblasts (IL-1 stimulation)
Format: cell-based
Conditions: Fibroblast; human fibroblasts under stimulation with IL-1
Answers are plain numbers, in µM.

GET IC50 where system = production of prostaglandin E2 by human fibroblasts and item = CC(C)(C)c1ccccc1O[C@@H]1C[C@@H](CNC(=O)c2ccc(/C=C3\SC(=O)NC3=O)cc2)N(C(=O)c2ccccc2C(=O)c2ccc(F)cc2)C1 [Compound A-75] 2.2

GET IC50 where system = production of prostaglandin E2 by human fibroblasts and item = CC(C)CN(Cc1ccccc1)[C@@H]1C[C@@H](CNC(=O)/C=C/c2ccc(/C=C3\SC(=O)NC3=O)cc2)N(C(=O)c2ccccc2C(=O)c2ccc(F)cc2)C1 [Compound M-18] 8.8

GET IC50 where system = production of prostaglandin E2 by human fibroblasts and item = O=C1NC(=O)/C(=C/c2ccc(C(=O)NC[C@@H]3C[C@@H](OCc4ccccc4Cc4ccccc4)CN3C(=O)c3ccccc3C(=O)c3ccc(F)cc3)cc2)S1 [Compound A-32] 0.57

Please supply IC50 for each of the following items, keeping them in order.
1. CC(C)CN(C(c1ccccc1)c1ccccc1)[C@@H]1C[C@@H](CNC(=O)/C=C/c2ccc(/C=C3\SC(=O)NC3=O)cc2)N(C(=O)c2ccccc2C(=O)c2ccc(F)cc2F)C1 [Compound M-21]
2. O=C1NC(=O)/C(=C/c2ccc(/C=C/C[C@@H]3C[C@@H](OCc4ccccc4-c4ccccc4)CN3C(=O)c3ccccc3C(=O)c3ccc(F)cc3)cc2)S1 [Compound E-14]

1: 0.31; 2: 5.6

Please supply IC50 for each of the following items, keeping them in order.
1. O=C1NC(=O)/C(=C/c2ccc(S(=O)(=O)NC[C@@H]3C[C@@H](SCc4ccccc4-c4ccccc4)CN3C(=O)c3ccccc3C(=O)c3ccc(F)cc3)s2)S1 [Compound I-9]
2. O=C1NC(=O)/C(=C/c2ccc(C(=O)NC[C@@H]3C[C@@H](OCc4ccccc4-c4ccccc4)CN3C(=O)c3ccccc3C(=O)c3cccs3)cc2)S1 [Compound A-19]
3. CN(C)c1cccc(O[C@@H]2C[C@@H](CNC(=O)c3ccc(/C=C4\SC(=O)NC4=O)cc3)N(C(=O)c3ccccc3C(=O)c3ccc(F)cc3)C2)c1 [Compound A-87]
4. O=C1NC(=O)/C(=C/c2ccc(C(=O)NC[C@H]3C[C@H](OCc4ccccc4-c4ccccc4)CN3C(=O)c3ccccc3C(=O)c3ccc(F)cc3)cc2)S1 [Compound Q-5]
5. O=C1NC(=O)/C(=C/c2ccc(C(=O)NC[C@@H]3C[C@@H](Oc4ccc5ccccc5c4)CN3C(=O)c3ccccc3C(=O)c3ccc(F)cc3)cc2)S1 [Compound A-71]
6. CC(C)c1cccc(-c2ccccc2)c1O[C@@H]1C[C@@H](CNC(=O)c2ccc(/C=C3\SC(=O)NC3=O)cc2)N(C(=O)c2ccccc2C(=O)c2ccc(F)cc2)C1 [Compound A-104]

1. 1.8
2. 0.16
3. 0.33
4. 1.3
5. 0.31
6. 1.3

---

Target: cPLA2 (Homo sapiens, UniProt P47712)
Sequence (P47712 whole entry): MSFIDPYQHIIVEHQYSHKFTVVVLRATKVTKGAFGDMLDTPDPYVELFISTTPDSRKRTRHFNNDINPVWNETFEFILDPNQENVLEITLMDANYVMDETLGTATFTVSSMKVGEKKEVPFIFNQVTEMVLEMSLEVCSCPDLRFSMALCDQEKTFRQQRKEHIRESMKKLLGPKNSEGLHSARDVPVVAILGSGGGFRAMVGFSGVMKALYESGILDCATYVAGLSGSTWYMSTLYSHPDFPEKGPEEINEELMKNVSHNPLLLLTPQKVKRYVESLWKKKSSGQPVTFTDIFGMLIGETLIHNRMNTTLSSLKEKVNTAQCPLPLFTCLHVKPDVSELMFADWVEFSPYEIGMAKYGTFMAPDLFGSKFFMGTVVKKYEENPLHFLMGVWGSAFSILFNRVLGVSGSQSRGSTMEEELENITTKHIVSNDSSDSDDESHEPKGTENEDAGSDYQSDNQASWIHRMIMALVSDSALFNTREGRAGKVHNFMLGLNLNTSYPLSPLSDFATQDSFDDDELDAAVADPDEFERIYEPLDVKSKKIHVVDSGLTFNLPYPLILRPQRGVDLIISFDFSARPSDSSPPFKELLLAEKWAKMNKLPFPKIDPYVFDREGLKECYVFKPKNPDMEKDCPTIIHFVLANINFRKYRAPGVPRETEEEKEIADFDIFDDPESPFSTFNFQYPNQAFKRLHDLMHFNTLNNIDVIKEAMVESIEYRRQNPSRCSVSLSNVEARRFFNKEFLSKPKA
Assay: cPLA2 Inhibitory Activity
Type: biochemical
Settings: 1-palmitoyl-2-[14C]-arachidonoyl-sn-glycero-3-phosphocholine 2.5 μM, sn-1,2-dioleoylglycerol 1.25 μM; pH 7.5, 15 min at 37° C.
Entries whose IC50 is below 0.06 µM take met; entries at or above 0.06 µM take not met.

Worked examples, 3 compounds total:
Just wondering, is IC50 of CC(C)CN(C(c1ccccc1)c1ccccc1)[C@@H]1C[C@@H](CNC(=O)/C=C/c2ccc(/C=C3\SC(=O)NC3=O)cc2)N(C(=O)c2ccccc2C(=O)c2ccc(F)cc2)C1 below 0.06 µM? met

Just wondering, is IC50 of C/C(=C/C(=O)c1ccccc1)C(=O)N1C[C@H](OCc2ccccc2-c2ccccc2)C[C@H]1CNC(=O)c1ccc(/C=C2\SC(=O)NC2=O)cc1 below 0.06 µM? not met

Just wondering, is IC50 of O=C1NC(=O)/C(=C/c2ccc(C(=O)NC[C@@H]3C[C@@H](COc4ccccc4-c4ccccc4)CN3C(=O)c3ccccc3C(=O)c3ccc(F)cc3)cc2)S1 below 0.06 µM? met

API: the following record is the query input.
Just wondering, is IC50 of O=C1NC(=O)/C(=C/c2ccc(C(=O)NC[C@@H]3C[C@@H](Oc4ccccc4Cc4ccccc4)CN3C(=O)c3ccccc3C(=O)c3ccc(F)cc3)cc2)S1 below 0.06 µM? met

---

Tested on: production of prostaglandin E2 by human fibroblasts
Assay: Inhibition of Production of Prostaglandin E2 in Human Fibroblasts (IL-1 stimulation)
Format: cell-based
Conditions: Fibroblast; human fibroblasts under stimulation with IL-1
Readout Type: log10 of IC50 (log10 of the value in nM)
Plainly stated, the numbers are log10 of IC50 given in nM.

See these solved cases before continuing.
Provide only the value of recorded log10 of IC50 for O=C1NC(=S)S/C1=C\c1ccc(S(=O)(=O)NC[C@@H]2C[C@@H](SCc3ccccc3-c3ccccc3)CN2C(=O)c2ccccc2C(=O)c2ccc(F)cc2)s1 [Compound I-10] 2.51

Provide only the value of recorded log10 of IC50 for O=C(C[C@@H]1C[C@@H](OCc2ccccc2-c2ccccc2)CN1C(=O)c1ccccc1C(=O)c1ccc(F)cc1)Nc1ccc(/C=C2\SC(=S)NC2=O)cc1 [Compound F-3] 3.48

Please supply log10 of IC50 for each of the following items, keeping them in order.
1. O=C1NC(=S)S/C1=C\c1ccc(NC(=O)[C@@H]2C[C@@H](OCc3ccccc3-c3ccccc3)CN2C(=O)c2ccccc2C(=O)c2ccc(F)cc2)s1 [Compound B-7]
2. COc1cccc(-c2ccccc2C(C)C)c1O[C@@H]1C[C@@H](CNC(=O)c2ccc(/C=C3\SC(=O)NC3=O)cc2)N(C(=O)c2ccccc2C(=O)c2ccc(F)cc2)C1 [Compound A-120]
3. CC(C)CN(C(c1ccccc1)c1ccccc1)[C@@H]1C[C@@H](CNC(=O)c2ccc(/C=C3\SC(=O)NC3=O)cc2)N(C(=O)c2ccccc2C(=O)c2ccc(F)cc2F)C1 [Compound M-17]
4. O=C1NC(=S)S/C1=C\c1ccc(NC(=O)[C@@H]2C[C@@H](OCc3ccccc3-c3ccccc3)CN2C(=O)c2ccccc2C(=O)c2ccc(F)cc2)cc1 [Compound B-2]
5. O=C1NC(=O)/C(=C/c2ccc(C=C[C@@H]3C[C@@H](OCc4ccccc4-c4ccccc4)CN3C(=O)c3ccccc3C(=O)c3ccc(F)cc3)cc2)S1 [Compound E-4]
6. O=C1NC(=S)S/C1=C\c1ccc(S(=O)(=O)NC[C@@H]2C[C@@H](OCc3ccccc3-c3ccccc3)CN2C(=O)c2ccccc2C(=O)c2ccc(F)cc2)cc1 [Compound A-63]

1. 3.91
2. 2.87
3. 3.00
4. 3.60
5. 3.08
6. 2.95

---

System: production of prostaglandin E2 by human fibroblasts
Assay: Inhibition of Production of Prostaglandin E2 in Human Fibroblasts (IL-1 stimulation)
Format: cell-based
Conditions: Fibroblast; human fibroblasts under stimulation with IL-1
Readout Type: pIC50
One number for each entry, as −log10 of the molar value.

Provide only the value of recorded pIC50 for O=C1NC(=O)/C(=C/c2ccc(C(=O)NC[C@@H]3C[C@@H](N(Cc4ccccc4)Cc4ccccc4)CN3C(=O)c3ccccc3C(=O)c3ccc(F)cc3)cc2)S1 5.51

Provide only the value of recorded pIC50 for O=C1NC(=O)/C(=C/c2ccc(C(=O)NC[C@@H]3C[C@@H](OCc4ccccc4-c4ccccc4)CN3C(=O)c3sccc3C(=O)c3ccccc3)cc2)S1 7.00

Okay, now this compound:
Provide only the value of recorded pIC50 for CCN(Cc1ccccc1-c1ccccc1)[C@@H]1C[C@@H](CNC(=O)c2ccc(/C=C3\SC(=O)NC3=O)cc2)N(C(=O)c2ccccc2C(=O)c2ccc(F)cc2)C1 6.10
